system: PC-3 prostate; assay: NCI tumour cell line growth inhibition, 48 h
recorded.metric: GI50

Some entries whose results are on file:
- O=C(NCCc1nccs1)c1cnc2c(S)cccc2c1: 4390 nM
- O=C1C=CC(=O)N1c1ccc2ccccc2c1: 18100 nM
- COc1cccc(C2=C(c3cn(C)c4c(C)cccc34)C(=O)NC2=O)c1: > 18300 nM
- NC(=O)c1c(NC(=O)c2ccc(C(F)(F)F)cc2Cl)sc2c1CCC(=O)C2: 164 nM
- Cc1nc2ccccc2c(/C=C/c2ccc(C(F)(F)F)cc2)c1C(=O)/C=C/c1ccccc1: 1340 nM

Then this molecule:
Requested field: GI50. Item: CC(C)C[C@H](NC(=O)[C@@H](N)Cc1cccc2ccccc12)B(O)O
1120 nM
